test system: Saccharomyces cerevisiae; experiment: protein stability index of tFT-peptide fusion (C-terminal peptide) (PSI (0-1 scale)); higher = more stable (slower turnover); settings: genetic background: wild type; temperature: 30 C;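 note: PSI is a weighted mean of sequencing reads over stability bins, variants kept only with over 10 reads, mCherry proximal and sfGFP distal, peptide attached via GGGS linker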
Measure: protein stability index
Quick one: just the number, no unit, thanks!

Looking up MWYCGVSGPGNG , I found its protein stability index recorded as 0.686

Looking up ERRKGGEKGKKK , I found its protein stability index recorded as 0.691

Looking up ARLPSSRLDLSP , I found its protein stability index recorded as 0.686

Looking up EITLFELWPPGS , I found its protein stability index recorded as 0.78

Looking up FFGNGSGPWVLV , I found its protein stability index recorded as 0.66

Looking up RDARTWTVSHGT , I found its protein stability index recorded as 0.703

Looking up SFLVRFVYFFAL , I found its protein stability index recorded as 0.314

Looking up SAMSFTSRGVRH , I found its protein stability index recorded as 0.698

Looking up PPPPRPPATPFP , I found its protein stability index recorded as 0.676

Looking up CRPAASCLPPER , I found its protein stability index recorded as 0.668

Looking up FNLTCLLISFFN , I found its protein stability index recorded as 0.519

Looking up MKIKIEINKNKT , I found its protein stability index recorded as 0.654

Looking up RPPFPPPPLPPP , I found its protein stability index recorded as 0.656

Looking up PRPPPSFPPDPS , I found its protein stability index recorded as 0.669

Looking up LGALFGRFWWYF , I found its protein stability index recorded as 0.42

Looking up FLPRLSASSSLC , I found its protein stability index recorded as 0.728

Looking up AGLPGSSFWWVF , I found its protein stability index recorded as 0.682

Looking up TSSHLLFISSMI , I found its protein stability index recorded as 0.638

Looking up SLKHRSSLRQLI , I found its protein stability index recorded as 0.519
